Reference source: ChEMBL document CHEMBL1133298

# target.system: Extracellular calcium-sensing receptor (Rattus norvegicus)
# experimental.protocol: Compound was evaluated for accumulation of [3H]- IP in CHO (CaSR) cells expressing rat cloned calcium sensing receptor
# Format: functional, cell-based
recorded.metric: Accumulation (%)
The figure you give is taken to be in %; do not add the unit.

Illustrative cases are given below, each with its answer.
INSERT INTO measurements (compound, target_system, unit_label, measured_value) VALUES
  ('CC(NCC(Cc1ccccc1)NS(=O)(=O)c1ccc([N+](=O)[O-])cc1)c1ccccc1 (centres undefined)', 'Extracellular calcium-sensing receptor (Rattus norvegicus)', '%', 8),
  ('CC(NCC(Cc1ccccc1)NS(=O)(=O)c1ccccc1Cl)c1cccc2ccccc12 (centres undefined)', 'Extracellular calcium-sensing receptor (Rattus norvegicus)', '%', 79),
  ('CC(NCC(Cc1ccccc1)NS(=O)(=O)c1ccc([N+](=O)[O-])cc1)c1cccc2ccccc12 (centres undefined)', 'Extracellular calcium-sensing receptor (Rattus norvegicus)', '%', 28),
  ('CC(NCC(Cc1ccccc1)NS(=O)(=O)c1ccc(N)cc1)c1ccccc1 (centres undefined)', 'Extracellular calcium-sensing receptor (Rattus norvegicus)', '%', 2),
  ('COc1ccc(CC(CNC(C)c2cccc3ccccc23)NS(=O)(=O)c2ccc(OC)cc2)cc1 (centres undefined)', 'Extracellular calcium-sensing receptor (Rattus norvegicus)', '%', 45),
  ('Cc1ccc(S(=O)(=O)NC(CNC(C)c2cccc3ccccc23)Cc2ccccc2)cc1 (centres undefined)', 'Extracellular calcium-sensing receptor (Rattus norvegicus)', '%', 68),
  ('CC(NCC(Cc1ccccc1)NS(=O)(=O)c1ccccc1)c1cccc2ccccc12 (centres undefined)', 'Extracellular calcium-sensing receptor (Rattus norvegicus)', '%', 78),
  ('COc1cccc(C(C)NCC(Cc2ccccc2)NS(=O)(=O)c2ccc(C)cc2)c1 (centres undefined)', 'Extracellular calcium-sensing receptor (Rattus norvegicus)', '%', 36);

Now examine the next entry.
Fill blank: measured Accumulation of the compound CC(NCC(Cc1ccccc1)NS(=O)(=O)c1ccc(Cl)cc1)c1cccc2ccccc12 (centres undefined) is ____. 38
